test system: MS2 coat protein; assay: apparent KD of MS2 coat protein; designed switch direction (-1 OFF switch, 1 ON switch): -1; higher = weaker reporter binding; conditions: input ligand: FMN 200 uM
Could you please report measured apparent KD of MS2 coat protein for the items listed next?

Please supply the value of reported apparent KD of MS2 coat protein for the item AUAUACGGAGGAUAUACUUGAGGAUCACCCAAGUGGAGUCCCGUUUGGGCGGUAAAUAGUAGAAGGCCGACCCA [jl-ex3-4.43 ViennaUCT mod] (Eterna round: R97, puzzle: Exclusion 3)
0.0141 µM

Please supply the value of reported apparent KD of MS2 coat protein for the item CUUAUGUGAGGAUAUGCCUGGCCGUGAGGCCAAAUUGAAUUGCAGAAGGCACAUGAGGAUCACCCAUGUGCGGG [jl-ex4-4.66 ViennaUCT mod] (Eterna round: R97, puzzle: Exclusion 4)
0.201 µM

Please supply the value of reported apparent KD of MS2 coat protein for the item ACAUGUUAUUUAGGAUAUUGGACACAUGAGGAUCACCCAUGUACCCGGAGGCUUUACUAUGAGUUCGAGAAGGAGAUGUACAUG [Ex NG2 #70] (Eterna round: R96, puzzle: Exclusion NG 2)
0.0893 µM

---

system: MS2 coat protein; assay: apparent KD of MS2 coat protein; higher = weaker reporter binding; conditions: Eterna round: R107; input ligand: none
measured-metric: apparent KD of MS2 coat protein (µM)
Please give a number only; it is taken to be in µM.

Please supply the value of reported apparent KD of MS2 coat protein for the item UGUGUCGUCUGAAGGAGCGGCUCUUGAUCCUCGUGGGACAUGAGGAUCACCCAUGUCUCGAGCCAGGUAGGUCGCAGGCGGCACA [#27 Exclusion - Arginine B]
0.026

Please supply the value of reported apparent KD of MS2 coat protein for the item AAGUAAACAUGAGCAAAGCUCAUGUGCGAAGGAGCGGCGGAAACGCCAGGUAGGUCGCGCACAUGAGCAUCAGCCAUGUGUAUCA [Omei Arginine B SS A v2]
0.031

Please supply the value of reported apparent KD of MS2 coat protein for the item ACAUGAGGAUCACCCAUGUCAGGGCACGAUACCAGCUGAUCCGGUGGCCCUUGGCAGCGUGACGAGUGGUCAUGAGGAUCACACG [?fmullin]
0.128

Please supply the value of reported apparent KD of MS2 coat protein for the item UCGCCCAGAAAGGAUUCCUGGGAUAUGGAAGGAGCGCUGAUGCCAGCAGGUAGGUCGCCAACGGACAUGAGGAUCACCCAUGUAC [Same State - Arginine A (Freestyle 7)]
0.0173

Please supply the value of reported apparent KD of MS2 coat protein for the item UGUAUGGACUGAAGGAGCGCCUCAAAAUAACUUGAGGAACACCCAAGUAAGGCGAAAGCCGGGCAGGUAGGUCGCAGUCCAUACU [ArgBX 3]
0.0246

Please supply the value of reported apparent KD of MS2 coat protein for the item AUGUAGAACCGAAGGAGCGCGAUAACAUGAGGAUCACCCAUGUAGUUUUGGUGGCUUCGAUCGCAGGUAGGUCGCGGAAGUAGUA [#03 Exclusion - Arginine B]
0.0359

Please supply the value of reported apparent KD of MS2 coat protein for the item UGACAUUGCUCAGAUACCAGACAUGAGCAUCAGCCAUGUACCAAGAGUACAUGUUAAAGUGUCCCUUGGCAGCUGAGCAAUGUCU [Mod of Eli's TheoBX5 #AlternateMS2 v3]
0.0709

Please supply the value of reported apparent KD of MS2 coat protein for the item CGUAUUACGAAAGUAGUACGUAGUUCGAGUCGAGGACCGGUACGGCCGCCACUCGGACAUGAGGAUCACCCAUGUAGCGAAAGCU [Tryptophan A 23]
0.125

Please supply the value of reported apparent KD of MS2 coat protein for the item UAGUUAGCGGCGGCCGCCACUCGAGAUAUAACAUGAUAUCAUAACAUGAGGAUCACCCAUGUCACGAGGACCGGGCCGAUCUUCA [Same State Typptophan B GF6]
0.0485

Please supply the value of reported apparent KD of MS2 coat protein for the item UGUCCUCAUGCGGCCGCCACUGUCGGCCGCCACUAAACCUGAGGAUCACCCGGGUAGGACCGGGACAGGACCGGGCAUGGGUGCU [#DoubleAptamer 4 #AlternativeMS2]
0.315

Please supply the value of reported apparent KD of MS2 coat protein for the item GACCCAUGAGUUGGAAAAGCUCAUGGGUCGCGAGGACCGGUACGGCCGCCACUCGGCUGUACAUGAGGAUCACCCAUGUCAGGGU [#1 Same State - Tryptophan A Attempt #25 (HarryS)]
0.125

---

tested on: MS2 coat protein; assay: apparent KD of MS2 coat protein; designed switch direction (-1 OFF switch, 1 ON switch): 1; higher = weaker reporter binding; details: input ligand: microRNA oligo, concentration not stated
Hi all, reminder that labels come from apparent KD of MS2 coat protein, split as low interval: < 0.04 µM; middle interval: ≥ 0.04 µM and < 0.09 µM; high interval: ≥ 0.09 µM

Textbook exercise: identify the category of the sequence given here, GGAUGAUAAAUAGGAUAUUAAUUGUAAUUAGGUUAAGAAGGAUUAAUGAUUUAAACGACCAGUUACAUGAGGAUCACCCAUGUU [JR_SSNG1_Sub088] (Eterna round: R96, puzzle: Same State NG 1) , according to its measured value.
high interval

Textbook exercise: identify the category of the sequence given here, UGUUAGUAGUGAGGAUAUACAUACACCUUACAUGAGGAUCACCCAUGUUUUAAGAUUGAUAGAUAGUAGAAGGCACAUGAUGAU [JR_SSNG2_Sub042] (Eterna round: R96, puzzle: Same State NG 2) , according to its measured value.
low interval

Textbook exercise: identify the category of the sequence given here, AAUAACAAUUUAGGAUAUCGACAGCGAAACUCACGAGAAGGAGAUAAGAGGCUGGCCUCGCGCACAUGAGGAUCACCCAUGUCG [Eternabot solution 25] (Eterna round: R96, puzzle: Same State NG 1) , according to its measured value.
low interval

Textbook exercise: identify the category of the sequence given here, GGGAGACCUCAAGGAUAUGCUACCGUUUCGGUAGCAGAAGGUGAUCACAUGAGGAUCACCCAUGUAUGCAUGCGUGAGCGUGCU [JL SSNG1 3.58] (Eterna round: R96, puzzle: Same State NG 1) , according to its measured value.
low interval

Textbook exercise: identify the category of the sequence given here, CGGAAACGAUGAGGAUAUGCAGAGGAUCACCCUGUAGAAGGCAAGAGAUGAGGAUAUGCAGAGGAUCACCCUGUAGAAGGCAAC [pwkr ssNG DX.4] (Eterna round: R96, puzzle: Same State NG 1) , according to its measured value.
middle interval

Textbook exercise: identify the category of the sequence given here, UUGCUCGUGUGAGGAUAUGCCGCCGUUUCGGCUGCAGAAGGUGCUACGUUACAUGAGGAUCACCCAUGUCUCUGUUGUUUCGUG [salish99_SSNG1_r04_941] (Eterna round: R96, puzzle: Same State NG 1) , according to its measured value.
low interval

Textbook exercise: identify the category of the sequence given here, GCUCGAUGAGCGUCCUACAUGAGGAUCACCCAUGUUCGUGGGCAGGAUAUUUACAUGCAGAGUGUAGAGAAGGGCCCAUCGAGC [SameState NG3 #65] (Eterna round: R96, puzzle: Same State NG 3) , according to its measured value.
high interval

Textbook exercise: identify the category of the sequence given here, GGAGCCAAGGCAGGAUAUUCAUAUUAAAUGACAUGAGGAUCACCCAUGUUGGCCAGAAGGCCAUGGGAGAAGGGCCAUGGCUCG [Xeonanis - 13 mod23] (Eterna round: R96, puzzle: Same State NG 2) , according to its measured value.
high interval

Textbook exercise: identify the category of the sequence given here, UUGAAGAACUAAGGAUAUUGAAUACAUAUGUUUAACAUGAGGAUCACCCAUGUGGGUUGCGGUGUCGAGAAGGUAGAAUAAUAG [Mat - same State NG 2 - JL mod - D96] (Eterna round: R96, puzzle: Same State NG 2) , according to its measured value.
high interval

Textbook exercise: identify the category of the sequence given here, AGCUUGUGGGUAGGAUAUUUAGGAUAUGCGGAAGACUAAGUCUGUAGGUCACCUAACGCAGAAGGAGAGAAGGACCCUUCAGCA [pwkr ssNG2 2FMN + F9.30] (Eterna round: R96, puzzle: Same State NG 2) , according to its measured value.
low interval

Textbook exercise: identify the category of the sequence given here, AAAAUGUGAUGUUACAUGAGGAUCACCCAUGUAGUGACAACUAAGGAUAUCUGAAAAAAAGGAGAGGAGAAGGUAGGAUCACAA [AK SSNG3-V2-16.1] (Eterna round: R96, puzzle: Same State NG 3) , according to its measured value.
low interval

Textbook exercise: identify the category of the sequence given here, GGAUGACGGACAGGAUAUUGAUUCUAAUGGUUUCAAGAAGGGUCUUCGAUAUAAACGACCAGUUACAUGAGGAUCACCCAUGUU [JR_SSNG1_Sub033] (Eterna round: R96, puzzle: Same State NG 1) , according to its measured value.
middle interval

Textbook exercise: identify the category of the sequence given here, UGUUGUAUUACAGGAUAUCUAGUAUUUAUAUUUAGAGAAGGGUAUUCACAUGAGGAUCACCCAUGUAUAUACGAGGAAGUUGUG [JMF's solution 41] (Eterna round: R96, puzzle: Same State NG 1) , according to its measured value.
low interval

Textbook exercise: identify the category of the sequence given here, GUGGAGGGUUGAGGAUAUUGAUUACAUAUGUUUAACAUGAGGAUCACCCAUGUGGGUUGCGGUUUCGAGAAGGUAGGUUGCUGG [salish99_SSNG2_r04_041] (Eterna round: R96, puzzle: Same State NG 2) , according to its measured value.
middle interval

Textbook exercise: identify the category of the sequence given here, AUUAUUUAUGCAGGAUAUGAUUAACAUGAGGAUCACCCAUGUGGUGUUGUGAGUAAGGAGAGUGAUCAGAAGGGCAUUUUUUUU [JMF's solution 22] (Eterna round: R96, puzzle: Same State NG 2) , according to its measured value.
high interval
